Recorded z-score values for a group of molecules are listed next.
Experiment: E. coli acrAB mutant growth effects, primary screen, E. coli filamentation inducers, strain DRC39, OD650, 24 h (AID 1178);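 further: growth measured as culture turbidity by optical density at 650 nm; test concentration not given here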
Details: higher = more signal, called active from +8 up or from −8 down
recordedEndpoint: z-score

[[record]]
molecule = "COC(=O)[C@@]1(Cc2ccc(F)cc2)[C@H]2c3cc(C(=O)N4CCCC4)n(CCO)c3C[C@H]2CN1C(=O)c1ccccc1"
testresult = 0.0412

[[record]]
molecule = "C#CCN(C/C=C/c1ccccc1)[C@H](CO[Si](C)(C)C(C)(C)C)c1ccccc1"
testresult = -1.38

[[record]]
molecule = "NCCCC[C@@H]1NC(=O)[C@H]2C[C@@H](C(=O)NCc3ccc(F)cc3)[C@@H](c3ccc(O)cc3)N2C1=O"
testresult = 0.207

[[record]]
molecule = "[N-]=[N+]=NCc1ccccc1[C@@H]1OC(c2ccc(OCCCO)cc2)=N[C@]1(Cc1ccccc1)C(=O)NCc1ccccc1"
testresult = -0.0548

[[record]]
molecule = "C=C(COC)/C(=C/C[C@@H](OC(C)=O)c1ccccc1OCCO)c1cc(C(=O)OC)ccc1OC"
testresult = 0.013

[[record]]
molecule = "COCCOC(=O)N1C(=O)[C@@]2(c3cc(C#CC4=CCCCC4)ccc31)[C@H](C(=O)N1CCc3cc(OC)c(OC)cc3C1)[C@H]1C(=O)O[C@H](c3ccccc3)[C@H](c3ccccc3)N1[C@@H]2c1ccc(O)cc1"
testresult = -0.724

[[record]]
molecule = "CCC(CC)C(O)C1C=CC2C(=O)N(C)C(=O)C2N1N1CCCCC1 (configuration not stated)"
testresult = -0.652


----------
Assay: small-molecule binders of probe aNOTCH3, primary screen, biochemical, small-molecule microarray, 635/667 nm fluorescence (AID 1120);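 further: probe is a biotin-tagged antibody raised against NOTCH3 rather than NOTCH3 protein; score merges spot fluorescence near 667 nm with spot signal to noise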
Details: higher = more signal
Decide by composite z-score: equal to or exceeding 0.1 means 1 (yes), less means 0 (no).

[[record]]
molecule = "CCCC=C(CCC)[C@@H](NS(=O)(=O)c1ccc(Cl)cc1)c1ccccc1"
labelclass = "0 (no)"

[[record]]
molecule = "Cc1c(NC(=O)/C(C#N)=C/c2ccc(Cl)cc2)c(=O)n(-c2ccccc2)n1C"
labelclass = "0 (no)"

[[record]]
molecule = "C=CC[C@]1(C(=O)OC)N=C(c2ccc(OCCCO)cc2)O[C@H]1c1ccccc1N=[N+]=[N-]"
labelclass = "1 (yes)"

[[record]]
molecule = "CO[C@H]1O[C@H](CO)[C@@H](OC(=O)Nc2ccc3c(c2)OCO3)[C@@H]2OC(=O)[C@@H](Cc3ccccc3)C/C=C/C[C@H](Cc3ccccc3)C(=O)O[C@@H]12"
labelclass = "1 (yes)"

[[record]]
molecule = "COc1ccc(CCNC(=O)[C@@]2(Sc3ccc(C)cc3)CC(=O)N(C(C)C)[C@@H]2c2ccc(CO)cc2)cc1"
labelclass = "0 (no)"

[[record]]
molecule = "C=C(CCCC)C(=O)CC[C@H](OC(=O)c1cccnc1)c1ccc(CO)o1"
labelclass = "1 (yes)"

[[record]]
molecule = "CCCC=C(CCC)[C@@H](NC(=O)c1ccco1)c1ccc(C(=O)OC)cc1"
labelclass = "1 (yes)"

[[record]]
molecule = "COC(=O)[C@@]1(Cc2ccc(F)cc2)[C@H]2c3cc(C(=O)N(C)C)n(CCO)c3C[C@H]2CN1C(=O)c1ccccc1"
labelclass = "0 (no)"

[[record]]
molecule = "C=CC(CO)NC(=O)OCC1c2ccccc2-c2ccccc21 (stereo unspecified)"
labelclass = "0 (no)"

[[record]]
molecule = "CC(C)CNC(=O)[C@@H]1c2ccccc2C(=O)N(Cc2ccccc2Cl)[C@H]1c1ccc(CO)cc1"
labelclass = "0 (no)"

[[record]]
molecule = "COCCOC(=O)N1C(=O)[C@@]2(c3cc(C#Cc4ccc(OC)cc4)ccc31)[C@H](C(=O)Nc1nc3ccccc3s1)[C@H]1C(=O)O[C@H](c3ccccc3)[C@H](c3ccccc3)N1[C@@H]2c1ccccc1OCCO"
labelclass = "1 (yes)"

[[record]]
molecule = "CCCCC(=C=CC[C@@H](O)c1cccc(OCCO)c1)C[C@@H](O)COCc1ccccc1"
labelclass = "0 (no)"

[[record]]
molecule = "N[C@@H](Cc1ccccc1)Cn1cc(C2(O)CCCCC2)nn1"
labelclass = "0 (no)"

[[record]]
molecule = "CO[C@H]1O[C@H](CO)[C@@H](OC(=O)Nc2ccccc2)[C@@H]2OC(=O)[C@H](Cc3ccccc3)C/C=C/C[C@@H](Cc3ccccc3)C(=O)O[C@@H]12"
labelclass = "1 (yes)"

[[record]]
molecule = "CN(C)C(=O)[C@@]1(CCS(=O)(=O)c2ccccc2)N=C(c2ccc(OCCCO)cc2)O[C@H]1c1ccccc1N=[N+]=[N-]"
labelclass = "1 (yes)"

[[record]]
molecule = "COCCCN1C(=O)[C@@]2(Cc3ccccc31)c1ccccc1C(=O)N(Cc1ccccc1OC)[C@H]2c1ccc(CO)cc1"
labelclass = "0 (no)"


----------
System: Sonic hedgehog protein (Shh)
Test: small-molecule binders of Shh protein, primary screen, biochemical, small-molecule microarray, 635/667 nm fluorescence (AID 1151);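 further: Shh protein binding to compounds spotted on small-molecule microarray slides; score combines spot fluorescence intensity with signal-to-noise across triplicate slides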
Settings: small-molecule microarray binding, 635 nm fluorescence; higher = more signal
recordedEndpoint: composite z-score

[[record]]
compound = "C#CCN([C@H](/C=C/C1CC1)[C@@H](O)Cc1ccccc1)[C@@H](Cc1ccccc1)C(=O)OC"
testresult = 1.08

[[record]]
compound = "C=CCC(OC(C)=O)[C@@H]1[C@@H](N(Cc2ccc(-c3ccccc3)cc2)C(=O)c2cccc3ccccc23)c2cc(OCCCO)ccc2N1C(=O)c1ccc2ccccc2c1 (stereo partly specified)"
testresult = 0.156

[[record]]
compound = "C[C@H]1NC(=O)C([C@@H](C)OCc2ccccc2)NC(=O)[C@@]23C(=O)N[C@@H](Cc4ccccc4)C2[C@H](C)[C@@]2(C)O[C@H]2C3/C=C/C/C=C\\CNC1=O (stereo partly specified)"
testresult = 0.551

[[record]]
compound = "COc1cccc(C[C@H]2C[C@@H](CO[Si](C(C)C)(C(C)C)C(C)C)N3C(=O)[C@@]4(C(C)=O)O[C@@]23[C@@H]2C(=O)N(C)C(=O)[C@@H]24)c1"
testresult = 1.3

[[record]]
compound = "C=CCC(OC(C)=O)[C@@H]1[C@@H](N(Cc2cc3ccccc3o2)C(=O)c2ccc(-c3ccccc3)cc2)c2cc(OCCCO)ccc2N1C(=O)c1ccc2ccccc2n1 (stereo partly specified)"
testresult = 0.135

[[record]]
compound = "CC(C)CNC(=O)[C@@H]1c2ccccc2C(=O)N(C2Cc3ccccc3C2)[C@H]1c1ccc(CO)cc1"
testresult = 0.436


----------
Test: modulators of HCV replicon luciferase signal, primary screen, HCV replication inhibitor project, Huh7 cells, luciferase reporter (AID 1109);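 further: huh7 hepatoma cells harbouring a luciferase neomycin HCV replicon reporter; luciferase luminescence as measure of HCV replicon replication; test concentration not given here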
Conditions: 48 h, higher = more signal
Reported z-score by item:
recordedEndpoint: z-score

[[record]]
samplesmiles = "NC(=O)NCC#Cc1ccc2c(c1)[C@]1(C(=O)N2)[C@H](C(=O)Nc2nc3ccccc3s2)[C@H]2C(=O)O[C@H](c3ccccc3)[C@H](c3ccccc3)N2[C@@H]1c1ccc(OCCO)cc1"
recordedendpoint = "z-score"
testresult = -0.942

[[record]]
samplesmiles = "COCCOC(=O)N1C(=O)[C@@]2(c3cc(C#CC4=CCCCC4)ccc31)[C@H](c1ccc(OCCO)cc1)N1[C@H](c3ccccc3)[C@H](c3ccccc3)OC(=O)[C@H]1[C@@H]2C(=O)N1CCCCCCC1"
recordedendpoint = "z-score"
testresult = -1.13

[[record]]
samplesmiles = "CC(C)C[C@@H]1NC(=O)[C@@H]2C[C@H](C(=O)NCCCC[N+](C)(C)C)[C@H](c3ccc(O)cc3)N2C1=O"
recordedendpoint = "z-score"
testresult = -0.996


----------
Test system: Sam68 (KHDRBS1)
Test: Sam68 small-molecule binders, primary screen, biochemical, small-molecule microarray, 635 nm fluorescence (AID 1125);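 further: score merges 667 nm channel intensity with signal to noise over triplicate slides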
Details: small-molecule microarray binding, higher = more signal
recordedEndpoint: composite z-score

[[record]]
compound = "O=C1C2C=CC(C(O)c3cccs3)N(Nc3ccccc3)C2C(=O)N1c1ccccc1 (centres undefined)"
recordedendpoint = "composite z-score"
testresult = -0.0232

[[record]]
compound = "C[N+](C)(C)CCCCCCNC(=O)[C@H]1C[C@H]2C(=O)NCC(=O)N2[C@H]1c1cccc(OCCO)c1"
recordedendpoint = "composite z-score"
testresult = 0.562

[[record]]
compound = "CC(C)C[C@H]1NC(=O)[C@@H](C)NC(=O)[C@@]23C(=O)N[C@@H](Cc4ccccc4)C2[C@H](C)[C@@]2(C)O[C@H]2C3/C=C/C/C=C\\CNC1=O (some centres undefined)"
recordedendpoint = "composite z-score"
testresult = 0.997

[[record]]
compound = "CCCCC=C[C@@H](NC(=O)c1ccc(C(F)(F)F)cc1)c1ccccc1"
recordedendpoint = "composite z-score"
testresult = -0.0265

[[record]]
compound = "C=CCC(OC(C)=O)[C@@H]1[C@@H](N(Cc2ccc(-c3cccc(C(F)(F)F)c3)o2)C(=O)c2cccc3ccccc23)c2cc(OCCCO)ccc2N1C(=O)c1ccc2ccccc2c1 (some centres undefined)"
recordedendpoint = "composite z-score"
testresult = -0.351

[[record]]
compound = "CN(C)CCCNC(=O)[C@@]1(Cc2ccccc2I)c2ccccc2C(=O)N(Cc2ccccc2)[C@H]1c1ccc(CO)cc1"
recordedendpoint = "composite z-score"
testresult = 1.3

[[record]]
compound = "CCCC[C@@H]1C[C@H]1[C@@H](NC(=O)c1ccc(C(F)(F)F)cc1)c1ccc(C(=O)OC)cc1"
recordedendpoint = "composite z-score"
testresult = 0.504

[[record]]
compound = "COc1ccc([Si](C)(C)[C@@H]2[C@@H](CC(=O)N(CCO)Cc3ccccc3)O[C@]3(C(=O)N(Cc4ccc(N5CCC5=O)cc4)c4ccccc43)[C@H]2C)cc1"
recordedendpoint = "composite z-score"
testresult = 0.0201

[[record]]
compound = "C[C@@H](OCc1ccccc1)C1NC(=O)[C@@]23C(=O)N[C@@H](Cc4ccccc4)C2[C@H](C)[C@@]2(C)O[C@H]2C3/C=C/C/C=C\\CNC(=O)[C@H](Cc2ccccc2)NC1=O (some centres undefined)"
recordedendpoint = "composite z-score"
testresult = -0.24

[[record]]
compound = "COCCOC(=O)N1C(=O)[C@@]2(c3ccccc31)[C@H](c1ccc(OCCO)cc1)N1[C@H](c3ccccc3)[C@H](c3ccccc3)OC(=O)[C@H]1[C@@H]2C(=O)N1CCN(c2ncccn2)CC1"
recordedendpoint = "composite z-score"
testresult = 1.3

[[record]]
compound = "CCOC(=O)C1=CC[C@@H](c2ccccc2Cl)N(S(=O)(=O)c2ccc(C)cc2)[C@H]1c1cccc(OC)c1"
recordedendpoint = "composite z-score"
testresult = 0.371

[[record]]
compound = "COCC(=C=CC[C@@H](O)c1ccc(OCCO)cc1)C[C@@H](O)COCc1ccccc1"
recordedendpoint = "composite z-score"
testresult = 1.28

[[record]]
compound = "COc1ccc(CC[C@H](O)c2cccc(OCC(=O)OC(C)(C)C)c2)cc1"
recordedendpoint = "composite z-score"
testresult = 1.33

[[record]]
compound = "C=C(CC1([C@@H](NP(=O)(c2ccccc2)c2ccccc2)[C@H]2C[C@@H]2CCN(C(=O)OCC)S(=O)(=O)c2ccc(C)cc2)CC1)c1ccccc1"
recordedendpoint = "composite z-score"
testresult = 0.981

[[record]]
compound = "CN1C(=O)[C@]2(CCS(=O)(=O)c3ccccc3)N=C(c3ccc(OCCCO)cc3)O[C@@H]2c2ccccc21"
recordedendpoint = "composite z-score"
testresult = 1.2

[[record]]
compound = "C=CCC(OC(C)=O)[C@@H]1[C@@H](N(Cc2ccc(-c3cccc(C(F)(F)F)c3)o2)C(=O)c2cccc3ccccc23)c2cc(OCCCO)ccc2N1C(=O)c1ccc2ccccc2n1 (some centres undefined)"
recordedendpoint = "composite z-score"
testresult = -0.258

[[record]]
compound = "COC(=O)[C@@]1(Cc2ccc(F)cc2)[C@H]2c3cc(C(=O)N4CCCC4)n(CCO)c3C[C@H]2CN1C(=O)c1ccccc1"
recordedendpoint = "composite z-score"
testresult = -2.03

[[record]]
compound = "COCCOC(=O)N1C(=O)[C@@]2(c3cc(C#CC4(O)CCCCCC4)ccc31)[C@H](C(=O)NC[C@H](O)c1ccccc1)[C@H]1C(=O)O[C@H](c3ccccc3)[C@H](c3ccccc3)N1[C@@H]2c1ccc(O)cc1"
recordedendpoint = "composite z-score"
testresult = 1.16

[[record]]
compound = "[N-]=[N+]=NCc1ccccc1C[C@]1(C(=O)NCc2ccccc2)N=C(c2ccc(OCCCO)cc2)O[C@H]1c1ccccc1CN=[N+]=[N-]"
recordedendpoint = "composite z-score"
testresult = 0.839

[[record]]
compound = "COC(=O)c1c(CC[C@@H](CO)NC(=O)N[C@@H](Cc2ccccc2)Cn2cc(-c3cncn3C)nn2)oc(C(C)=O)c1C(=O)OC"
recordedendpoint = "composite z-score"
testresult = 1.21

[[record]]
compound = "CN(C)C(=O)[C@]1(Cc2ccccc2CN=[N+]=[N-])N=C(c2ccc(OCCCO)cc2)O[C@@H]1c1ccccc1N=[N+]=[N-]"
recordedendpoint = "composite z-score"
testresult = 1.3

[[record]]
compound = "CC(C)C[C@@H]1NC(=O)[C@H]2C[C@@H](C(=O)NCCCCCNC(=O)CS)[C@@H](c3ccc(O)cc3)N2C1=O"
recordedendpoint = "composite z-score"
testresult = 1.31

[[record]]
compound = "CC(=O)NCCCC[C@@H]1NC(=O)[C@@H]2C[C@H](C(=O)NCCCCCC[N+](C)(C)C)[C@H](c3ccc(O)cc3)N2C1=O"
recordedendpoint = "composite z-score"
testresult = 0.992

[[record]]
compound = "COC(=O)[C@@H]1N=C(c2ccc(OCCCO)cc2)O[C@@H]1c1ccccc1CN=[N+]=[N-]"
recordedendpoint = "composite z-score"
testresult = 0.513

[[record]]
compound = "COc1ccccc1CN1C(=O)c2ccccc2[C@@H](C(=O)NCCCN(C)C)[C@@H]1c1ccc(CO)cc1"
recordedendpoint = "composite z-score"
testresult = -2.03

[[record]]
compound = "CCCCC(=C=CC[C@@H](O)c1cccc(OCCO)c1)CCO"
recordedendpoint = "composite z-score"
testresult = 0.158

[[record]]
compound = "C[N+](C)(C)CCCC[C@@H]1NC(=O)[C@H]2C[C@@H](C(=O)NCCCCCNC(=O)CS)[C@@H](c3ccc(O)cc3)N2C1=O"
recordedendpoint = "composite z-score"
testresult = 0.616

[[record]]
compound = "CCCC[C@@H](O)C1=C(COC)Cn2c(=O)n(-c3ccccc3)c(=O)n2[C@H]1CO"
recordedendpoint = "composite z-score"
testresult = -0.532

[[record]]
compound = "CC(c1ccccc1)C(O)C1C=CC2C(=O)N(c3ccccc3)C(=O)C2N1Nc1ccc(C#N)cc1 (centres undefined)"
recordedendpoint = "composite z-score"
testresult = 1.34

